Source of measurements: patent US10022422B2

- assayExplanation: Figure 6
- Parameters: concentration or dose not given beside the values
- Description: Table printed on a drawing sheet, Figure 6 First reader's note: The head SP-2 is printed shifted to the left of its column of values.
Where a SMILES comes first, the peptide text is derived from it. Bridges are numbered along the chain shown (N, C = ends). [ ]: non-standard residue; d: D form. R8 = C=CCCCCCC[C@@](C)(N)C(=O)O; S5 = C=CCCC[C@](C)(N)C(=O)O; Nle = CCCC[C@H](N)C(=O)O; Aib = CC(C)(N)C(=O)O
AUC,inf listing for selected compounds.
Answer format: numeric, ng·h/mL implied, no suffix.

• CCCC[C@H](NC(C)=O)C(=O)N[C@@H](CC(=O)O)C(=O)N[C@H](C(=O)N[C@@H](CC(N)=O)C(=O)N1CCC[C@H]1C(=O)N[C@H](C(=O)N[C@@H](CC(C)C)C(=O)N[C@@H](CC(C)C)C(=O)N[C@@H](Cc1ccccc1)C(=O)N[C@@H](CC(C)C)C(=O)N[C@@H](CCCCN)C(=O)N[C@H](C(=O)N1CCC[C@H]1C(=O)N[C@@H](C)C(=O)N[C@@H](CCC(N)=O)C(N)=O)C(C)C)[C@@H](C)O)C(C)C = 1616
• CCCC[C@H](NC(C)=O)C(=O)N[C@@H](CC(=O)O)C(=O)N[C@H](C(=O)N[C@@H](CC(N)=O)C(=O)NC(C)(C)C(=O)N[C@H](C(=O)N[C@@H](CC(C)C)C(=O)N[C@@]1(C)CCCC=CCCC[C@@](C)(C(=O)N[C@@H](C)C(=O)N[C@@H](C)C(=O)N[C@@H](CCC(N)=O)C(N)=O)NC(=O)[C@H](CCCCN)NC(=O)[C@H](CC(C)C)NC(=O)[C@H](Cc2ccccc2)NC1=O)[C@@H](C)O)C(C)C [SP-9, Ac-NleDVNAibTL$FLK$AAQ-NH2] (Ac-[Nle]DVN[Aib]TL[S5]FLK[S5]AAQ-NH2; staple 8-12) = 11950
• CCCC[C@H](NC(C)=O)C(=O)N[C@@H](CC(=O)O)C(=O)N[C@H](C(=O)N[C@@H](CC(N)=O)C(=O)NC(C)(C)C(=O)N[C@H](C(=O)N[C@]1(C)CCCCCCC=CCCC[C@@](C)(C(=O)N[C@@H](CCCNC(=N)N)C(N)=O)NC(=O)[C@H](C)NC(=O)[C@H](C(C)C)NC(=O)[C@H](CCCCN)NC(=O)[C@H](CC(C)C)NC(=O)[C@H](Cc2ccccc2)NC(=O)[C@H](CC(C)C)NC1=O)[C@@H](C)O)C(C)C [SP-15, Ac-NlcDVNAibT$r8LFLKVA$R-NH2] (Ac-[Nle]DVN[Aib]T[R8]LFLKVA[S5]R-NH2; staple 7-14) = 25410
• CCCC[C@H](NC(C)=O)C(=O)N[C@@H](CC(=O)O)C(=O)N[C@H](C(=O)N[C@@H](CC(N)=O)C(=O)NC(C)(C)C(=O)N[C@H](C(=O)N[C@@H](CC(C)C)C(=O)N[C@@H](CC(C)C)C(=O)N[C@@H](Cc1ccccc1)C(=O)N[C@@H](CC(C)C)C(=O)N[C@@H](CCCCN)C(=O)N[C@H](C(=O)NC(C)(C)C(=O)N[C@@H](C)C(=O)N[C@@H](CCC(N)=O)C(N)=O)C(C)C)[C@@H](C)O)C(C)C [SP-2, Ac-NleDVNAibTLLFLKVAibAQ-NH2] (Ac-[Nle]DVN[Aib]TLLFLKV[Aib]AQ-NH2) = 3385
• CCCC[C@H](NC(C)=O)C(=O)N[C@@H](CC(=O)O)C(=O)N[C@H](C(=O)N[C@@H](CC(N)=O)C(=O)N1CCC[C@H]1C(=O)N[C@H](C(=O)N[C@@H](CC(C)C)C(=O)N[C@@]1(C)CCCC=CCCC[C@@](C)(C(=O)N[C@@H](C)C(=O)N[C@@H](C)C(=O)N[C@@H](CCC(N)=O)C(N)=O)NC(=O)[C@H](CCCCN)NC(=O)[C@H](CC(C)C)NC(=O)[C@H](Cc2ccccc2)NC1=O)[C@@H](C)O)C(C)C [SP-10, Ac-NleDVNPTL$FLK$AAQ-NH2] (Ac-[Nle]DVNPTL[S5]FLK[S5]AAQ-NH2; staple 8-12) = 5800
• CCCC[C@H](NC(C)=O)C(=O)N[C@@H](CC(=O)O)C(=O)N[C@H](C(=O)N[C@@H](CC(N)=O)C(=O)NC(C)(C)C(=O)N[C@H](C(=O)N[C@@H](CC(C)C)C(=O)N[C@@H](CC(C)C)C(=O)N[C@@H](Cc1ccccc1)C(=O)N[C@@]1(C)CCCC=CCCC[C@@](C)(C(=O)N[C@@H](CCCNC(=N)N)C(N)=O)NC(=O)[C@H](C)NC(=O)[C@H](C(C)C)NC(=O)[C@H](CCCCN)NC1=O)[C@@H](C)O)C(C)C [SP-6, Ac-NleDVNAibTLLF$KVA$R-NH2] (Ac-[Nle]DVN[Aib]TLLF[S5]KVA[S5]R-NH2; staple 10-14) = 10976

Item under review: CCCC[C@H](NC(C)=O)C(=O)N[C@@H](CC(=O)O)C(=O)N[C@H](C(=O)N[C@@H](CC(N)=O)C(=O)N1CCC[C@H]1C(=O)N[C@H](C(=O)N[C@@H](CC(C)C)C(=O)N[C@@H](CC(C)C)C(=O)N[C@@H](Cc1ccccc1)C(=O)N[C@@]1(C)CCCC=CCCC[C@@](C)(C(=O)N[C@@H](CCCNC(=N)N)C(N)=O)NC(=O)[C@H](C)NC(=O)[C@H](C(C)C)NC(=O)[C@H](CCCCN)NC1=O)[C@@H](C)O)C(C)C [SP-11, Ac-NleDVNPTLLF$KVA$R-NH2] (Ac-[Nle]DVNPTLLF[S5]KVA[S5]R-NH2; staple 10-14) . Reported AUC,inf?
9100
